- Tested on: α5GABAA receptor cell-surface expression
- Experimental Details: Receptor cell-surface ELISA assay in cultured hippocampal neurons
- Assay type: cell-based, mouse
- Condition Notes: peptide 2 μM, 24 hrs, astrocyte-conditioned medium (etomidate 1 μM, 1 hr)
Assay Metric: etomidate-induced increase in α5GABAA receptor surface expression

{"Substance": "AWDGKKAL (listed as Homo sapiens) [Peptide C8, N-terminal truncated peptide, positions 350-357]", "System Name": "α5GABAA receptor cell-surface expression", "Value Observed": "prevented"}
{"Substance": "GWAWDGKKAL (listed as Homo sapiens) [Peptide C10, N-terminal truncated peptide, positions 348-357]", "System Name": "α5GABAA receptor cell-surface expression", "Value Observed": "prevented"}
